Target: Substance-K receptor (Oryctolagus cuniculus, UniProt P79218)
Sequence (P79218 whole entry): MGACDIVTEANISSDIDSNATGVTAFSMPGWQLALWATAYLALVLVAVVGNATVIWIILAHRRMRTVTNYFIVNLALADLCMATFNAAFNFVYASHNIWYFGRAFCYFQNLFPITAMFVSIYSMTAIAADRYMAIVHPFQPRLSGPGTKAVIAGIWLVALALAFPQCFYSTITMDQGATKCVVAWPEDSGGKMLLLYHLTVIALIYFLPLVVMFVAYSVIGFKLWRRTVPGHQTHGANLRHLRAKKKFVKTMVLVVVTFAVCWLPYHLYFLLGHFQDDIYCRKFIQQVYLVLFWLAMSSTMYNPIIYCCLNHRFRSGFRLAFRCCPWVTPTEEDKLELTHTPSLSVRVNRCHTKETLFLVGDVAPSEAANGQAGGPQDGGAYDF
Experiment: Functional potency against Tachykinin receptor 2 (NK2) in rabbit pulmonary artery assay
Details: read-out: pA2 (converted)
molecules and their reported Kb
Respond with the bare value in nM.

>>> quantitative_result("O=C1CCC(CCN2CC(N3CCC(O)C3)C2)(c2ccc(Cl)c(Cl)c2)CN1Cc1ccccc1 (stereo not drawn)")
2
>>> quantitative_result("O=C1CCC(CCN2CC(N3CCCC(O)C3)C2)(c2ccc(Cl)c(Cl)c2)CN1Cc1ccccc1 (stereo not drawn)")
2
>>> quantitative_result("CNS(=O)(=O)N1CCN(C2CN(CCC3(c4ccc(Cl)c(Cl)c4)CCC(=O)N(CC4CC4)C3)C2)CC1 (stereo not drawn)")
3.16
>>> quantitative_result("O=C1CCC(CCN2CC(N3CCC(O)CC3)C2)(c2ccc(Cl)c(Cl)c2)CN1CC1CC1 (stereo not drawn)")
1.58
>>> quantitative_result("NC(=O)N1CCN(C2CN(CCC3(c4ccc(Cl)c(Cl)c4)CCC(=O)N(CC4CC4)C3)C2)CC1 (stereo not drawn)")
5.01
>>> quantitative_result("CC(=O)NC1(c2ccccc2)CCN(C2CN(CCC3(c4ccc(Cl)c(Cl)c4)CCC(=O)N(CC4CC4)C3)C2)CC1 (stereo not drawn)")
3.16
>>> quantitative_result("O=C1CCC(CCN2CC(N3CCOCC3)C2)(c2ccc(Cl)c(Cl)c2)CN1CC1CCCCC1 (stereo not drawn)")
1.26
>>> quantitative_result("O=C1CCC(CCN2CC(N3CCOCC3)C2)(c2ccc(Cl)c(Cl)c2)CN1Cc1ccc(F)cc1 (stereo not drawn)")
20
>>> quantitative_result("O=C1CCC(CCN2CC(N3C4CCC3CC(O)C4)C2)(c2ccc(Cl)c(Cl)c2)CN1Cc1ccccc1 (stereo not drawn)")
0.631
>>> quantitative_result("O=C1CCC(CCN2CC(N3CCOCC3=O)C2)(c2ccc(Cl)c(Cl)c2)CN1Cc1ccccc1 (stereo not drawn)")
2.51

**Query** Query (molecule): NC1CCN(C2CN(CCC3(c4ccc(Cl)c(Cl)c4)CCC(=O)N(CC4CC4)C3)C2)CC1 (stereo not drawn) ; field requested: Kb
**Result** 2

**Query** // query Kb value for entry O=C1CCC(CCN2CC(N3CCNCC3)C2)(c2ccc(Cl)c(Cl)c2)CN1Cc1ccccc1 (stereo not drawn)
**Result** 5.01

**Query** What value of measured Kb is listed for O=C1CCC(CCN2CC(N3CCC(O)CC3)C2)(c2ccc(Cl)c(Cl)c2)CN1Cc1ccccc1 (stereo not drawn) ?
**Result** 0.0794

**Query** Can you look up the measured Kb of O=C1CC[C@@](CCN2CC(N3CCOCC3)C2)(c2ccc(Cl)c(Cl)c2)CN1CC1CCCCC1 for me?
**Result** 631

**Query** I would be grateful if you could share the reported Kb for O=C1CCC(CCN2CC(N3CC[S+]([O-])CC3)C2)(c2ccc(Cl)c(Cl)c2)CN1Cc1ccccc1 (stereo not drawn) .
**Result** 0.631

**Query** Field request: Kb | item: O=C1CCC(CCN2CCC(O)(c3ccccc3)CC2)(c2ccc(Cl)c(Cl)c2)CN1Cc1ccccc1 (stereo not drawn)
**Result** 1.26

**Query** Given the molecule O=C1CCC(CCN2CC(N3CCSCC3)C2)(c2ccc(Cl)c(Cl)c2)CN1Cc1ccccc1 (stereo not drawn) , what is its reported Kb?
**Result** 1

**Query** Which Kb reading was recorded for the molecule O=C(O)C1CCN(C2CN(CCC3(c4ccc(Cl)c(Cl)c4)CCC(=O)N(CC4CC4)C3)C2)CC1 (stereo not drawn) ?
**Result** 0.398
